# System: EMC-BAC-2
# assay remarks: relative viability (nuclei count vs DMSO), 5 days (fraction); higher = more cells survive
# particulars: first compound 0.0002 µM
assay readout: relative viability

compound: CC(=O)O[C@@]12CO[C@@H]1C[C@H](O)[C@@]1(C)C(=O)[C@H](O)C3=C(C)[C@@H](OC(=O)[C@H](O)[C@@H](NC(=O)OC(C)(C)C)c4ccccc4)C[C@@](O)([C@@H](OC(=O)c4ccccc4)[C@H]21)C3(C)C [Docetaxel] + CC(C)C[C@H](NC(=O)[C@H](Cc1ccccc1)NC(=O)c1cnccn1)B(O)O [Bortezomib] (partner 0.002 µM)
assay readout: relative viability
value: 0.963
//
compound: CC(=O)O[C@@]12CO[C@@H]1C[C@H](O)[C@@]1(C)C(=O)[C@H](O)C3=C(C)[C@@H](OC(=O)[C@H](O)[C@@H](NC(=O)OC(C)(C)C)c4ccccc4)C[C@@](O)([C@@H](OC(=O)c4ccccc4)[C@H]21)C3(C)C [Docetaxel] + CC(=O)c1c(C)c2cnc(Nc3ccc(N4CCNCC4)cn3)nc2n(C2CCCC2)c1=O [Palbociclib] (partner 0.5 µM)
assay readout: relative viability
value: 0.511
//
compound: CC(=O)O[C@@]12CO[C@@H]1C[C@H](O)[C@@]1(C)C(=O)[C@H](O)C3=C(C)[C@@H](OC(=O)[C@H](O)[C@@H](NC(=O)OC(C)(C)C)c4ccccc4)C[C@@](O)([C@@H](OC(=O)c4ccccc4)[C@H]21)C3(C)C [Docetaxel] + O=C(CCCCCCC(=O)Nc1ccccc1)NO [Vorinostat] (partner 1 µM)
assay readout: relative viability
value: 0.388
//
compound: CC(=O)O[C@@]12CO[C@@H]1C[C@H](O)[C@@]1(C)C(=O)[C@H](O)C3=C(C)[C@@H](OC(=O)[C@H](O)[C@@H](NC(=O)OC(C)(C)C)c4ccccc4)C[C@@](O)([C@@H](OC(=O)c4ccccc4)[C@H]21)C3(C)C [Docetaxel] + O=C(c1cc(Cc2n[nH]c(=O)c3ccccc23)ccc1F)N1CCN(C(=O)C2CC2)CC1 [Olaparib] (partner 8 µM)
assay readout: relative viability
value: 0.492
//
compound: CC(=O)O[C@@]12CO[C@@H]1C[C@H](O)[C@@]1(C)C(=O)[C@H](O)C3=C(C)[C@@H](OC(=O)[C@H](O)[C@@H](NC(=O)OC(C)(C)C)c4ccccc4)C[C@@](O)([C@@H](OC(=O)c4ccccc4)[C@H]21)C3(C)C [Docetaxel] + CC(=O)Nc1cccc(-n2c(=O)n(C3CC3)c(=O)c3c(Nc4ccc(I)cc4F)n(C)c(=O)c(C)c32)c1 [Trametinib] (partner 0.02 µM)
assay readout: relative viability
value: 0.874
//
compound: CC(=O)O[C@@]12CO[C@@H]1C[C@H](O)[C@@]1(C)C(=O)[C@H](O)C3=C(C)[C@@H](OC(=O)[C@H](O)[C@@H](NC(=O)OC(C)(C)C)c4ccccc4)C[C@@](O)([C@@H](OC(=O)c4ccccc4)[C@H]21)C3(C)C [Docetaxel] + CCNC(=O)c1noc(-c2cc(C(C)C)c(O)cc2O)c1-c1ccc(CN2CCOCC2)cc1 [Luminespib] (partner 0.01 µM)
assay readout: relative viability
value: 1.15
//
compound: CC(=O)O[C@@]12CO[C@@H]1C[C@H](O)[C@@]1(C)C(=O)[C@H](O)C3=C(C)[C@@H](OC(=O)[C@H](O)[C@@H](NC(=O)OC(C)(C)C)c4ccccc4)C[C@@](O)([C@@H](OC(=O)c4ccccc4)[C@H]21)C3(C)C [Docetaxel] + Cc1nc(Nc2ncc(C(=O)Nc3c(C)cccc3Cl)s2)cc(N2CCN(CCO)CC2)n1 [Dasatinib] (partner 0.075 µM)
assay readout: relative viability
value: 0.298
